- Tested system: UniProt A0A4X1UTF5
- Sequence (A0A4X1UTF5 1-422): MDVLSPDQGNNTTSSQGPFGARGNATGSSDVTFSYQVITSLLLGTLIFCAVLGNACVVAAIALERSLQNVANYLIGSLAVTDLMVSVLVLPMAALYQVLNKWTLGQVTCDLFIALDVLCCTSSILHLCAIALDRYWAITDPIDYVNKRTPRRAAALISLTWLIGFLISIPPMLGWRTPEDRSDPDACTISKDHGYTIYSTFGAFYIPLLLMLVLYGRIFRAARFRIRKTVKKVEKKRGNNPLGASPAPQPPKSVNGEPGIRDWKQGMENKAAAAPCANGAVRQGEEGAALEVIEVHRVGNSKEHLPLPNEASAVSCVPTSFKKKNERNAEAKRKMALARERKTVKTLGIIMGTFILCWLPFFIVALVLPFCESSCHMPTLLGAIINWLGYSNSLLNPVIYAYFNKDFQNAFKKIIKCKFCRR
- Assay procedure: radio ligand binding, pig cortex membrane preparations, [3H]8-OH-DPAT
- Test settings: read-out: Ki values 5-HT1A; p5-HT1A; [3H]8-OH-DPAT; average of 2 to 6 experiments
I'd appreciate it if you could supply Ki values for the items below.
Numbers only, in nM.

N#Cc1ccc2cc(C(=O)NCCCCN3CCN(c4cccc(Cl)c4Cl)CC3)[nH]c2c1 [Example 15] | 390
COc1ccccc1N1CCN(CCCCNC(=O)c2cc3cc(Br)ccc3o2)CC1 [Example 5] | 68
O=C(NCCCCN1CCN(c2cccc(Cl)c2Cl)CC1)c1cc2cc(Br)ccc2s1 [Example 23] | 430
N#Cc1ccc2sc(C(=O)NCCCCN3CCN(c4cccc(Cl)c4Cl)CC3)cc2c1 [Example 19] | 190
O=C(NCCCCN1CCN(c2cccc(Cl)c2Cl)CC1)c1cc2cc(Br)ccc2o1 [Example 6] | 2500

Could you report Ki for every entry in the following list?
1. O=C(NCCCCN1CCN(c2cccc(Cl)c2Cl)CC1)c1cc2cc(Br)ccc2[nH]1 [Example 14]
2. COc1ccccc1N1CCN(CCCCNC(=O)c2cc3cc(Br)ccc3s2)CC1 [Example 22]
3. N#Cc1ccc2[nH]c(C(=O)NCCCCN3CCN(c4cccc(Cl)c4Cl)CC3)cc2c1 [Example 25]
4. O=C(NCCCCN1CCN(c2cccc(Cl)c2Cl)CC1)c1cc2ccccc2[te]1 [Example 9]

Reply:
[1600, 180, 190, 130]
